Values from patent US20240158446A1

Items are presented alongside their recorded Kd.
# TARGET_ENTITY: UniProt:P01116
# Sequence (P01116 whole entry): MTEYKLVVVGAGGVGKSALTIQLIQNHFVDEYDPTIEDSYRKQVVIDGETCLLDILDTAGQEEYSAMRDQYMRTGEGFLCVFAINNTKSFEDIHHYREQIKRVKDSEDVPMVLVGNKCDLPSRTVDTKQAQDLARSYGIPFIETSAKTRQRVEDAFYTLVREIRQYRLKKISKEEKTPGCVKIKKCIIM
# METHOD: Binding to KRAS by surface plasmon resonance (SPR), Single Cycle Kinetics
# TEST_CONTEXT: SPR, Single Cycle Kinetics, GDP-bound KRAS wild-type protein; read-out: KRAS KD
# unit: nM | format: bare number

{"INPUT_SMILES": "CCO[C@@H]1C[C@H]2C(=O)NC3(CCC3)C(=O)N(C)[C@@H](C3CCCC3)C(=O)N(C)[C@H](C(=O)N3CCOCC3)CC(=O)N(C)[C@@H](Cc3cccs3)C(=O)N[C@@H]([C@@H](C)CC)C(=O)N(C)CC(=O)N(C)[C@H]3CCCCCN(C3=O)[C@@H](Cc3ccc(C(F)(F)F)cc3)C(=O)N(C)CC(=O)N[C@@H](CCc3cc(F)c(C(F)(F)F)c(F)c3)C(=O)N2C1", "Kd, nM": 0.59}

# evaluate next
Give Kd (UniProt:P01116) of the following molecule: CCCOC[C@H]1C(=O)N[C@@H]([C@@H](C)CC)C(=O)N(C)CC(=O)N(C)[C@H]2C/C=C\CCN(C2=O)[C@@H](CC2CCC(F)(F)CC2)C(=O)N(C)CC(=O)N[C@@H](CCc2ccc(C(F)(F)F)c(OC)c2)C(=O)N2C[C@H](OCC)C[C@H]2C(=O)N(C)C2(CCC2)C(=O)N(C)[C@@H](C2CCCC2)C(=O)N(C)[C@H](C(=O)N(C)C)CC(=O)N1C
0.35
